METHOD_NOTES: in vitro
CONDITION_DETAILS: mouse, microsomes
PARAMETER: microsomal CLint (µL/min/mg)

[[record]]
compound = "CC1NC(=O)N(c2ccc(F)c(C(F)(F)F)c2)C1=O (centres unmarked)"
readout_unit = "µL/min/mg"
readout_value = 34

[[record]]
compound = "O=C1N[C@H](c2ccccc2)C(=O)N1c1ccc(F)c(C(F)(F)F)c1"
readout_unit = "µL/min/mg"
readout_value = 181


* * *

METHOD_NOTES: Mouse exposure study after oral administration
Assay type: in vivo, male Swiss outbred mice
CONDITION_DETAILS: male, Swiss outbred, mouse, plasma, po, 100 mg/kg
PARAMETER: Tmax (h)

[[record]]
molecule = "CC1NC(=O)N(c2ccc(F)c(C(F)(F)F)c2)C1=O (stereo not shown) [Compd 23]"
readout_value = 1


* * *

METHOD_NOTES: physchem
Type: physicochemical
CONDITION_DETAILS: pH 7.4
Measured chromatographic logD values are reported for all entries that follow.
PARAMETER: chromatographic logD

[[record]]
molecule = "CC1NC(=O)N(c2ccc(F)c(C(F)(F)F)c2)C1=O (centres unmarked) [Compd 23]"
readout_value = 2.4

[[record]]
molecule = "O=C1N[C@H](c2ccccc2)C(=O)N1c1ccc(F)c(C(F)(F)F)c1 [Compd 24]"
readout_value = 3.5


* * *

Entries and their measured Sol6.5 follow.
CONDITION_DETAILS: pH 6.5 phosphate buffer, 1% DMSO, nephelometry
PARAMETER: Sol6.5

[[record]]
molecule = "CN1C(=O)N(c2ccc(F)c(C(F)(F)F)c2)C(=O)C1(C)C [Compd 2]"
parameter = "Sol6.5"
readout_value = "50–100/50–100 μg/mL"

[[record]]
molecule = "O=C1N[C@H](c2ccccc2)C(=O)N1c1ccc(F)c(C(F)(F)F)c1 [Compd 24]"
parameter = "Sol6.5"
readout_value = "6.3–12.5/6.3–12.5 μg/mL"

[[record]]
molecule = "CC1(C)CN(c2ccc(F)c(C(F)(F)F)c2)C(=O)N1 [Compd 32]"
parameter = "Sol6.5"
readout_value = "12.5–25/12.5–25 μg/mL"

[[record]]
molecule = "CC1NC(=O)N(c2ccc(F)c(C(F)(F)F)c2)C1=O (stereo not drawn) [Compd 23]"
parameter = "Sol6.5"
readout_value = ">100/>100 μg/mL"

[[record]]
molecule = "CC1(C)C(=O)N(c2ccc(F)c(C(F)(F)F)c2)C(=O)N1CC#N [Compd 5]"
parameter = "Sol6.5"
readout_value = "25–50/25–50 μg/mL"

[[record]]
molecule = "CC1(C)OC(=O)N(c2ccc(F)c(C(F)(F)F)c2)C1=O [Compd 30]"
parameter = "Sol6.5"
readout_value = "3.1–6.3/3.1–6.3 μg/mL"

[[record]]
molecule = "CC1(C)NC(=O)N(c2ccc(F)c(C(F)(F)F)c2)C1=O [Compd 1]"
parameter = "Sol6.5"
readout_value = ">100/>100 μg/mL"

[[record]]
molecule = "CC1(C)CNC(=O)N(c2ccc(F)c(C(F)(F)F)c2)C1=O [Compd 35]"
parameter = "Sol6.5"
readout_value = "12.5–25/12.5–25 μg/mL"

[[record]]
molecule = "CC1(C)CC(=O)N(c2ccc(F)c(C(F)(F)F)c2)C1=O [Compd 29]"
parameter = "Sol6.5"
readout_value = "12.5–25/12.5–25 μg/mL"

[[record]]
molecule = "O=C1NC2(CCCC2)C(=O)N1c1ccc(F)c(C(F)(F)F)c1 [Compd 26]"
parameter = "Sol6.5"
readout_value = "50–100/50–100 μg/mL"

[[record]]
molecule = "CC1(CO)NC(=O)N(c2ccc(F)c(C(F)(F)F)c2)C1=O (stereo not drawn) [Compd 25]"
parameter = "Sol6.5"
readout_value = "25–50/25–50 μg/mL"

[[record]]
molecule = "CCN1C(=O)N(c2ccc(F)c(C(F)(F)F)c2)C(=O)C1(C)C [Compd 3]"
parameter = "Sol6.5"
readout_value = "25 to 50 µg/mL"

[[record]]
molecule = "O=C1C2CCCN2C(=O)N1c1ccc(F)c(C(F)(F)F)c1 (stereo not drawn) [Compd 28]"
parameter = "Sol6.5"
readout_value = "25–50/25–50 μg/mL"

[[record]]
molecule = "O=C1CNC(=O)N1c1ccc(F)c(C(F)(F)F)c1 [Compd 22]"
parameter = "Sol6.5"
readout_value = ">100/>100 μg/mL"

[[record]]
molecule = "CC1(C)C(=O)N(c2ccc(F)c(C(F)(F)F)c2)C(=O)N1CC(N)=O [Compd 4]"
parameter = "Sol6.5"
readout_value = "50–100/50–100 μg/mL"

[[record]]
molecule = "CC1(C)C(=O)N(c2ccc(F)c(C(F)(F)F)c2)C(=O)N1S(C)(=O)=O [Compd 7]"
parameter = "Sol6.5"
readout_value = "1.6–3.1/1.6–3.1 μg/mL"

[[record]]
molecule = "CC1(C)C(=O)NC(=O)N1c1ccc(F)c(C(F)(F)F)c1 [Compd 33]"
parameter = "Sol6.5"
readout_value = "25–50/25–50 μg/mL"

[[record]]
molecule = "O=C1NC2(CCCCC2)C(=O)N1c1ccc(F)c(C(F)(F)F)c1 [Compd 27]"
parameter = "Sol6.5"
readout_value = "3.1–6.3/3.1–6.3 μg/mL"

[[record]]
molecule = "CC1(C)C(=O)N(c2ccc(F)c(C(F)(F)F)c2)C(=O)N1CCc1ccccc1 [Compd 6]"
parameter = "Sol6.5"
readout_value = "25 to 50 µg/mL"

[[record]]
molecule = "CC1(C)C(=O)N(c2ccc(F)c(C(F)(F)F)c2)C(=O)N1S(=O)(=O)c1ccccc1 [Compd 8]"
parameter = "Sol6.5"
readout_value = "<1.6/<1.6 μg/mL"

[[record]]
molecule = "CC1(C)CC(=O)N(c2ccc(F)c(C(F)(F)F)c2)C(=O)N1 [Compd 34]"
parameter = "Sol6.5"
readout_value = "25–50/25–50 μg/mL"

